Source: patent US8193189B2

In this section we review reported IC50 values for a set of compounds.
target: GST-JAK2(808-1132) (Homo sapiens, UniProt O60674); construct: GST-JAK2(808-1132); purchased Invitrogen (Carlsbad, USA) #4288; experiment: EPK JAK-family kinases profiling assay (Caliper mobility shift), JAK2; format: biochemical; settings: ATP 20 μM, 1.8 nM kinase
Sequence (O60674 808-1132): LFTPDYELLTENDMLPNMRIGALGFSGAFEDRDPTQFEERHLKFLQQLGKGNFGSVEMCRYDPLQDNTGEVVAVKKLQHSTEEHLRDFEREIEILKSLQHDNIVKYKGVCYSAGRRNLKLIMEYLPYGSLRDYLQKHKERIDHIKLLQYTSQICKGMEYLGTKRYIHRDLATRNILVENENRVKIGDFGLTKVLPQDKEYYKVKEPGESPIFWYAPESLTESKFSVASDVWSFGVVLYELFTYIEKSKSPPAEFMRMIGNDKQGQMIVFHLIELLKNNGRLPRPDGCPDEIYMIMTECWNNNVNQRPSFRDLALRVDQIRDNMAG

COCCOc1ccc(-c2cnc3cccc(-c4cc(F)c(CN5CCS(=O)(=O)CC5)c(F)c4)c3n2)cc1OC = < 3 nM
CN1CCN(C(=O)c2cc(-c3cnc4cccc(-c5cc(F)c(CN6CCS(=O)(=O)CC6)c(F)c5)c4n3)cn2C)CC1 = < 3 nM

Now for a further compound.
Query (compound): O=C(C1CC1)N1CCC(n2cc(-c3cnc4cccc(-c5cc(F)c(CN6CCOCC6)c(F)c5)c4n3)cn2)CC1 ; field requested: IC50 < 3 nM
